protocol.notes: Functional CPE-based assay to measure dose dependent changes in cell viability from drug treatment in Vero E6 miRFP670 cells (cotreated with P-gp inhibitor, CP100356). Cells are treated with antiviral candidates that have been serially diluted. Cytotoxicity is reported via analysis of MTS assays in uninfected cells. The assay has been performed by KU Leuven.
Assay type: toxicity, Vero C1008
condition: chlorocebus sabaeus, Vero E6 miRFP670 cells, with CP100356 (P-gp inhibitor, concentration not stated); p-gp concentration 500 nM
Please provide measured CC50 for the entries that follow.

Example entries and their recorded answers appear below.
>  <entry.smiles>
O=C(Nc1ccc2c(c1)CN[C@H]2C1CC1)c1cc(F)cc2[nH]ncc12

>  <result>
> 50 µM

$$$$
>  <entry.smiles>
Cc1cnccc1-c1cc(NC(=O)c2cc(F)cc3[nH]ncc23)cc2c1CNC2

>  <result>
> 50 µM

$$$$
>  <entry.smiles>
NCc1csc2cc(C(=O)Nc3ccc4c(c3)CNC4)ccc12

>  <result>
> 50 µM

$$$$
>  <entry.smiles>
O=C(NCc1ccc(F)cc1)[C@H](Nc1ccc2c(c1)CNC2)c1cc(Cl)cc2[nH]ncc12

>  <result>
> 50 µM

$$$$

Value sought for every listed molecule: CC50.
1. Cn1cc(CNC(=O)[C@H](Nc2ccc3c(c2)CNC3)c2cc(Cl)cc(C3CC3)c2)cn1
2. N#Cc1ccc(-c2nc3c(C(=O)Nc4ccc5c(c4)CNC5)cc(F)cc3[nH]2)cc1
3. O=C(Nc1ccc2c(c1)CNC2)c1cc(C(F)(F)F)cc2[nH]ccc12
4. O=C(Nc1ccc2c(n1)CNC2)c1cc(Cl)cc2[nH]ncc12
5. Clc1cc(CNc2ccc3c(c2)CNC3)c2cn[nH]c2c1
6. O=C(Nc1ccc2c(c1)CNC2)c1cc(Cl)cc2[nH]c(-c3ccc(F)cc3O)nc12
7. O=C(Nc1cc2c(c(C3=CC[C@H](O)CC3)c1)CNC2)c1cc(Cl)cc2[nH]ncc12

Reply |
1. > 50 µM
2. > 50 µM
3. > 50 µM
4. > 50 µM
5. 29.8 µM
6. 2.19 µM
7. > 50 µM

Ask | # query: CC50 of entry `N#Cc1cccc(-c2nc3c(C(=O)Nc4ccc5c(c4)CNC5)cc(Cl)cc3[nH]2)c1`
Reply | 6.67 µM

// provenance: ChEMBL document CHEMBL5661955
